Data credit: ChEMBL document CHEMBL5303573

# recorded-conditions: enterocloster bolteae, 12 h, 2 µM
# Description: The drug is tested on Clostridium bolteae strain: ATCCBAA-613 for biotransformation. The drug concentrations were measured before and after a 12-h incubation by liquid-chromatography-coupled mass spectrometry (LC–MS)
experimental-readout: Bacterial Biotransformation

// below: answered molecules
# molecule, Bacterial Biotransformation
measured = [
    ("CCN(CC)CCNC(=O)c1cc(S(C)(=O)=O)ccc1OC [TIAPRIDE]", "Compound NOT metabolized"),
    ("O=C1[C@H](CC[C@H](O)c2ccc(F)cc2)[C@@H](c2ccc(O)cc2)N1c1ccc(F)cc1 [EZETIMIBE]", "Compound NOT metabolized"),
    ("Br.CN(C)CCCC1(c2ccc(F)cc2)OCc2cc(C#N)ccc21 (centres undefined) [CITALOPRAM HYDROBROMIDE]", "Compound NOT metabolized"),
    ("CN1CCC[C@@H]1CCO[C@](C)(c1ccccc1)c1ccc(Cl)cc1.O=C(O)/C=C/C(=O)O [CLEMASTINE FUMARATE]", "Compound NOT metabolized"),
    ("CCOc1ccc2nc(S(N)(=O)=O)sc2c1 [ETHOXZOLAMIDE]", "Compound metabolized"),
    ("O=C1CN2Cc3c(ccc(Cl)c3Cl)N=C2N1 [ANAGRELIDE]", "Compound NOT metabolized"),
    ("OC(c1cc(C(F)(F)F)nc2c(C(F)(F)F)cccc12)C1CCCCN1 (centres undefined) [MEFLOQUINE]", "Compound NOT metabolized"),
    ("CC(=O)Oc1ccc(C(c2ccc(OC(C)=O)cc2)c2ccccn2)cc1 [BISACODYL]", "Compound metabolized"),
]

Now for another entry.
Ask: What Bacterial Biotransformation value was documented for this molecule, C#C[C@]1(OC(C)=O)CC[C@H]2[C@@H]3CCC4=CC(=O)CC[C@@H]4[C@H]3CC[C@@]21C [NORETHINDRONE ACETATE] ?
Reply: Compound metabolized

====

# recorded-conditions: akkermansia muciniphila, 12 h, 2 µM
# Description: The drug is tested on Akkermansia muciniphila strain: ATCC BAA-835 for biotransformation. The drug concentrations were measured before and after a 12-h incubation by liquid-chromatography-coupled mass spectrometry (LC–MS)
experimental-readout: Bacterial Biotransformation

# molecule, experimental-readout, meas-value
data = [
    ("COc1ccccc1N1CCN(CC(O)COc2cccc3ccccc23)CC1 (centres undefined) [NAFTOPIDIL]", "Bacterial Biotransformation", "Compound NOT metabolized"),
    ("Cc1cn([C@H]2C[C@H](N=[N+]=[N-])[C@@H](CO)O2)c(=O)[nH]c1=O [ZIDOVUDINE]", "Bacterial Biotransformation", "Compound NOT metabolized"),
    ("COC(=O)[C@H]1[C@H]2C[C@@H]3c4[nH]c5cc(OC)ccc5c4CCN3C[C@H]2C[C@@H](OC(=O)c2cc(OC)c(OC)c(OC)c2)[C@@H]1OC [RESERPINE]", "Bacterial Biotransformation", "Compound NOT metabolized"),
    ("CC(=O)Nc1ccc(OC(C)=O)cc1 [DIACETAMATE]", "Bacterial Biotransformation", "Compound metabolized"),
    ("CC(C)(C)NCC(O)c1cc(Cl)c(N)c(Cl)c1 (centres undefined) [CLENBUTEROL]", "Bacterial Biotransformation", "Compound NOT metabolized"),
    ("CC[C@@H](CO)NC(=O)[C@@H]1C=C2c3cccc4c3c(cn4C)C[C@H]2N(C)C1.O=C(O)/C=C\\C(=O)O [METHYSERGIDE MALEATE]", "Bacterial Biotransformation", "Compound metabolized"),
]

For every listed record, write down its Bacterial Biotransformation.
1. Clc1cccc(Cl)c1N=C1NCCN1 [CLONIDINE]
2. CN1CCN(C2=Nc3cc(Cl)ccc3Nc3ccccc32)CC1 [CLOZAPINE]
3. CC(=O)OCC(=O)[C@@]1(OC(C)=O)[C@@H](C)C[C@H]2[C@@H]3C[C@H](F)C4=CC(=O)C=C[C@]4(C)[C@@]3(F)[C@@H](O)C[C@@]21C [DIFLORASONE DIACETATE]
4. CN1C[C@H](C(=O)N[C@]2(C)O[C@@]3(O)[C@@H]4CCCN4C(=O)[C@H](Cc4ccccc4)N3C2=O)C=C2c3cccc4[nH]cc(c34)C[C@H]21.CN1C[C@H](C(=O)N[C@]2(C)O[C@@]3(O)[C@@H]4CCCN4C(=O)[C@H](Cc4ccccc4)N3C2=O)C=C2c3cccc4[nH]cc(c34)C[C@H]21.O=C(O)C(O)C(O)C(=O)O [ERGOTAMINE TARTRATE]
5. O=C(O)CCC(=O)O.O=C(O[C@H]1CN2CCC1CC2)N1CCc2ccccc2[C@@H]1c1ccccc1 [SOLIFENACIN SUCCINATE]
6. CC(O)(CS(=O)(=O)c1ccc(F)cc1)C(=O)Nc1ccc(C#N)c(C(F)(F)F)c1 (centres undefined) [BICALUTAMIDE]
7. CC(C)C[C@H]1C(=O)N2CCC[C@H]2[C@]2(O)O[C@](NC(=O)[C@@H]3C=C4c5cccc6[nH]c(Br)c(c56)C[C@H]4N(C)C3)(C(C)C)C(=O)N12.CS(=O)(=O)O [BROMOCRIPTINE MESYLATE]
8. COc1ccc2c(c1OC)C(=O)O[C@@H]2[C@H]1c2c(cc3c(c2OC)OCO3)CCN1C [NOSCAPINE]

Reply:
["Compound NOT metabolized", "Compound NOT metabolized", "Compound metabolized", "Compound metabolized", "Compound NOT metabolized", "Compound NOT metabolized", "Compound metabolized", "Compound metabolized"]

====

# experimental-protocol: The drug is tested on Escherichia coli strain: BW25113 for biotransformation. The drug concentrations were measured before and after a 12-h incubation by liquid-chromatography-coupled mass spectrometry (LC–MS)
# recorded-conditions: 2 µM
experimental-readout: Bacterial Biotransformation

// below: answered compounds
# compound, Bacterial Biotransformation
records = [
    ("O=C1[C@H](CC[C@H](O)c2ccc(F)cc2)[C@@H](c2ccc(O)cc2)N1c1ccc(F)cc1", "Compound NOT metabolized"),
    ("CN(C)CC(c1ccc(O)cc1)C1(O)CCCCC1.O=C(O)CCC(=O)O (configuration not stated) [DESVENLAFAXINE SUCCINATE]", "Compound NOT metabolized"),
    ("C#C[C@]1(O)CC[C@H]2[C@@H]3CCC4=CC(=O)CC[C@@H]4[C@H]3CC[C@@]21CC", "Compound NOT metabolized"),
    ("C#C[C@]1(OC(C)=O)CC[C@H]2[C@@H]3CCC4=C/C(=N/O)CC[C@@H]4[C@H]3CC[C@@]21CC [NORGESTIMATE]", "Compound NOT metabolized"),
    ("OC(c1cc(C(F)(F)F)nc2c(C(F)(F)F)cccc12)C1CCCCN1 (configuration not stated)", "Compound metabolized"),
    ("O=C(CCCN1CCC(O)(c2ccc(Cl)cc2)CC1)c1ccc(F)cc1", "Compound NOT metabolized"),
]

For every listed record, write down its Bacterial Biotransformation.
1. CS(=O)(=O)O.O.O.O.O=C1Cc2cc(CCN3CCN(c4nsc5ccccc45)CC3)c(Cl)cc2N1 [ZIPRASIDONE MESYLATE]
2. CCC(=O)NCC[C@@H]1CCc2ccc3c(c21)CCO3

Reply:
Compound metabolized
Compound NOT metabolized

For every listed record, write down its Bacterial Biotransformation.
1. O=C(O)c1cc(/N=N/c2ccc(S(=O)(=O)Nc3ccccn3)cc2)ccc1O
2. OC(CCN1CCCCC1)(c1ccccc1)C1CCCCC1 (configuration not stated)
3. CC(O)(CS(=O)(=O)c1ccc(F)cc1)C(=O)Nc1ccc(C#N)c(C(F)(F)F)c1 (configuration not stated) [BICALUTAMIDE]
4. CCCc1nc(C(C)(C)O)c(C(=O)OCc2oc(=O)oc2C)n1Cc1ccc(-c2ccccc2-c2nnn[nH]2)cc1
5. CN(C)CCC=C1c2ccccc2COc2ccccc21 [DOXEPIN]
6. CNNCc1ccc(C(=O)NC(C)C)cc1
7. CC(CN(C)C)CN1c2ccccc2CCc2ccccc21.O=C(O)/C=C\C(=O)O (configuration not stated) [TRIMIPRAMINE MALEATE]

Reply:
1. Compound metabolized
2. Compound NOT metabolized
3. Compound metabolized
4. Compound metabolized
5. Compound NOT metabolized
6. Compound NOT metabolized
7. Compound NOT metabolized

For every listed record, write down its Bacterial Biotransformation.
1. Cc1nc2n(c(=O)c1CCN1CCC(c3noc4cc(F)ccc34)CC1)CCCC2O (configuration not stated)
2. CCCc1nn(C)c2c(=O)[nH]c(-c3cc(S(=O)(=O)N4CCN(C)CC4)ccc3OCC)nc12.O=C(O)CC(O)(CC(=O)O)C(=O)O [SILDENAFIL CITRATE]
3. C[C@H]1O[C@@H](O[C@H]2[C@@H](O)C[C@H](O[C@H]3[C@@H](O)C[C@H](O[C@H]4CC[C@@]5(C)[C@H](CC[C@@H]6[C@@H]5C[C@@H](O)[C@]5(C)[C@@H](C7=CC(=O)OC7)CC[C@]65O)C4)O[C@@H]3C)O[C@@H]2C)C[C@H](O)[C@@H]1O

Reply:
["Compound metabolized", "Compound NOT metabolized", "Compound NOT metabolized"]

For every listed record, write down its Bacterial Biotransformation.
1. COc1ccc2[nH]c([S+]([O-])Cc3ncc(C)c(OC)c3C)nc2n1 (configuration not stated)
2. CC(=O)Oc1ccc(C(c2ccc(OC(C)=O)cc2)c2ccccn2)cc1
3. CC(C)NCC(O)COc1ccc(CC(N)=O)cc1 (configuration not stated)

Reply:
["Compound metabolized", "Compound metabolized", "Compound NOT metabolized"]

For every listed record, write down its Bacterial Biotransformation.
1. CCN(CC)CCNC(=O)c1ccc(NC(C)=O)cc1 [ACECAINIDE]
2. CC(C)(C)NC(=O)[C@H]1CC[C@H]2[C@@H]3CC[C@H]4NC(=O)C=C[C@]4(C)[C@H]3CC[C@]12C [FINASTERIDE]

Reply:
1. Compound NOT metabolized
2. Compound NOT metabolized

For every listed record, write down its Bacterial Biotransformation.
1. CCC1(c2ccc(N)cc2)CCC(=O)NC1=O (configuration not stated) [AMINOGLUTETHIMIDE]
2. OCCOCCN1CCN(C2=Nc3ccccc3Sc3ccccc32)CC1
3. COc1ccc(CN2CCNCC2)c(OC)c1OC.Cl.Cl [TRIMETAZIDINE DIHYDROCHLORIDE]
4. CCOc1ccccc1OCCN[C@H](C)Cc1ccc(OC)c(S(N)(=O)=O)c1.Cl [TAMSULOSIN HYDROCHLORIDE]

Reply:
Compound NOT metabolized
Compound NOT metabolized
Compound NOT metabolized
Compound NOT metabolized

For every listed record, write down its Bacterial Biotransformation.
1. C[C@@H](c1ncncc1F)[C@](O)(Cn1cncn1)c1ccc(F)cc1F
2. N[C@@H](Cc1ccc(N(CCCl)CCCl)cc1)C(=O)O
3. CC(CCc1ccccc1)NCC(O)c1ccc(O)c(C(N)=O)c1 (configuration not stated)
4. CCCN1C[C@H](CSC)C[C@@H]2c3cccc4[nH]cc(c34)C[C@H]21.CS(=O)(=O)O [PERGOLIDE MESYLATE]
5. CCN(CC)CC#CCOC(=O)C(O)(c1ccccc1)C1CCCCC1.Cl (configuration not stated) [OXYBUTYNIN CHLORIDE]

Reply:
1. Compound NOT metabolized
2. Compound metabolized
3. Compound NOT metabolized
4. Compound NOT metabolized
5. Compound NOT metabolized
